Numbers sourced from ChEMBL document CHEMBL3046897.

Could you please report measured zone of inhibition at 100 µg/disc for the items listed next?
# System: Candida albicans
# protocol-description: Antifungal activity against Candida albicans at 100 ug/disk after 48 hr by paper disk diffusion method
# Assay type: functional
# condition-notes: read-out: IZ

compound="COc1ccc(C2SC(CN3CCN(c4ccccn4)CC3)C(=O)N2c2ccc(Nc3nc(Oc4ccc5c(C)cc(=O)oc5c4)nc(N(C)C)n3)cc2)cc1OC (centres undefined)" observed_result="< 10 mm"
compound="Cc1cc(=O)oc2cc(Oc3nc(Nc4ccc(N5C(=O)CSC5c5ccc(F)cc5)cc4)nc(N(C)C)n3)ccc12 (centres undefined)" observed_result="24 mm"
compound=Cc1cc(=O)oc2cc(Oc3nc(Nc4ccc(/N=C/c5ccc(Cl)cc5Cl)cc4)nc(N(C)C)n3)ccc12 observed_result="12 mm"

Kindly consider the entry below.
Give Candida albicans zone of inhibition at 100 µg/disc for Cc1cc(=O)oc2cc(Oc3nc(Nc4ccc(N5C(=O)CSC5c5ccc(O)cc5O)cc4)nc(N(C)C)n3)ccc12 (centres undefined)
22 mm

====

Exercise: state measured zone of inhibition at 100 µg/disc for each of the compounds provided.
# System: Escherichia coli
# protocol-description: Antibacterial activity against Escherichia coli at 100 ug/disk after 24 hr by paper disk diffusion method
# Format: functional
# condition-notes: read-out: IZ
Give bare numbers, in mm.

Worked set:
compound="Cc1cc(=O)oc2cc(Oc3nc(Nc4ccc(N5C(=O)CSC5c5ccc(O)cc5O)cc4)nc(N(C)C)n3)ccc12 (stereo not drawn)" subject_of_test="Escherichia coli" assay_metric="zone of inhibition at 100 µg/disc" readout_unit=mm observed_result=20
compound="Cc1cc(=O)oc2cc(Oc3nc(Nc4ccc(N5C(=O)C(CN6CCN(c7ccccn7)CC6)SC5c5ccccc5Br)cc4)nc(N(C)C)n3)ccc12 (stereo not drawn)" subject_of_test="Escherichia coli" assay_metric="zone of inhibition at 100 µg/disc" readout_unit=mm observed_result=20

Now for another entry.
What does the record list as zone of inhibition at 100 µg/disc for `Cc1cc(=O)oc2cc(Oc3nc(Nc4ccc(/N=C/c5cccc(F)c5)cc4)nc(N(C)C)n3)ccc12` ?
20

====

Please respond with reported zone of inhibition at 100 µg/disc for every item in the list.
# System: Bacillus subtilis
# protocol-description: Antibacterial activity against Bacillus subtilis at 100 ug/disk after 24 hr by paper disk diffusion method
# Format: functional
# condition-notes: read-out: IZ
Reply with the number, then its unit.

compound="COc1ccc(C2SC(CN3CCN(c4ccccn4)CC3)C(=O)N2c2ccc(Nc3nc(Oc4ccc5c(C)cc(=O)oc5c4)nc(N(C)C)n3)cc2)cc1 (centres undefined)" observed_result="19 mm"

Report zone of inhibition at 100 µg/disc for every entry below.
1. Cc1cc(=O)oc2cc(Oc3nc(Nc4ccc(N5C(=O)CSC5c5ccc(Cl)cc5)cc4)nc(N(C)C)n3)ccc12 (centres undefined)
2. Cc1cc(=O)oc2cc(Oc3nc(Nc4ccc(N5C(=O)CSC5c5ccc(Cl)c(Cl)c5)cc4)nc(N(C)C)n3)ccc12 (centres undefined)
3. Cc1cc(=O)oc2cc(Oc3nc(Nc4ccc(N5C(=O)C(CN6CCN(c7ccccn7)CC6)SC5c5ccc(Cl)c(Cl)c5)cc4)nc(N(C)C)n3)ccc12 (centres undefined)

["16 mm", "18 mm", "21 mm"]

====

# System: Bacillus subtilis
# protocol-description: Antibacterial activity against Bacillus subtilis at 100 ug/disk after 24 hr by paper disk diffusion method
# Format: functional
# condition-notes: read-out: IZ
assay-metric: zone of inhibition at 100 µg/disc (mm)
One number for each entry, in mm.

compound="Cc1cc(=O)oc2cc(Oc3nc(Nc4ccc(N5C(=O)CSC5c5ccc(F)cc5)cc4)nc(N(C)C)n3)ccc12 (configuration not stated)" assay_metric="zone of inhibition at 100 µg/disc" observed_result=20
compound="Cc1cc(=O)oc2cc(Oc3nc(Nc4ccc(N5C(=O)CSC5c5ccc(O)cc5O)cc4)nc(N(C)C)n3)ccc12 (configuration not stated)" assay_metric="zone of inhibition at 100 µg/disc" observed_result=20
compound="Cc1ccc(C2SC(CN3CCN(c4ccccn4)CC3)C(=O)N2c2ccc(Nc3nc(Oc4ccc5c(C)cc(=O)oc5c4)nc(N(C)C)n3)cc2)cc1 (configuration not stated)" assay_metric="zone of inhibition at 100 µg/disc" observed_result=22

Go through the list and state zone of inhibition at 100 µg/disc for each entry.
1. Cc1cc(=O)oc2cc(Oc3nc(Nc4ccc(N5C(=O)C(CN6CCN(c7ccccn7)CC6)SC5c5ccc(O)cc5O)cc4)nc(N(C)C)n3)ccc12 (configuration not stated)
2. COc1ccc(/C=N/c2ccc(Nc3nc(Oc4ccc5c(C)cc(=O)oc5c4)nc(N(C)C)n3)cc2)cc1OC
3. COc1ccc(C2SC(CN3CCN(c4ccccn4)CC3)C(=O)N2c2ccc(Nc3nc(Oc4ccc5c(C)cc(=O)oc5c4)nc(N(C)C)n3)cc2)cc1OC (configuration not stated)
4. Cc1cc(=O)oc2cc(Oc3nc(Nc4ccc(N5C(=O)CSC5c5ccccc5Br)cc4)nc(N(C)C)n3)ccc12 (configuration not stated)

1: 23; 2: 12; 3: 17; 4: 20

====

Can you tell me zone of inhibition at 100 µg/disc for the items I'm about to list?
# Tested on: Bacillus subtilis
# protocol-description: Antibacterial activity against Bacillus subtilis at 100 ug/disk after 24 hr by paper disk diffusion method
# Type: functional
# condition-notes: read-out: IZ
Give bare numbers, in mm.

molecule="Cc1cc(=O)oc2cc(Oc3nc(Nc4ccc(N5C(=O)C(CN6CCN(c7ccccn7)CC6)SC5c5ccc(Cl)cc5Cl)cc4)nc(N(C)C)n3)ccc12 (stereo not given)" subject_of_test="Bacillus subtilis" assay_metric="zone of inhibition at 100 µg/disc" observed_result=23
molecule=COc1ccc(/C=N/c2ccc(Nc3nc(Oc4ccc5c(C)cc(=O)oc5c4)nc(N(C)C)n3)cc2)cc1 subject_of_test="Bacillus subtilis" assay_metric="zone of inhibition at 100 µg/disc" observed_result=13
molecule="COc1ccc(C2SCC(=O)N2c2ccc(Nc3nc(Oc4ccc5c(C)cc(=O)oc5c4)nc(N(C)C)n3)cc2)cc1OC (stereo not given)" subject_of_test="Bacillus subtilis" assay_metric="zone of inhibition at 100 µg/disc" observed_result=14
molecule="Cc1cc(=O)oc2cc(Oc3nc(Nc4ccc(N5C(=O)CSC5c5ccccc5C(=O)O)cc4)nc(N(C)C)n3)ccc12 (stereo not given)" subject_of_test="Bacillus subtilis" assay_metric="zone of inhibition at 100 µg/disc" observed_result=14

Query molecule follows.
Query the reported zone of inhibition at 100 µg/disc for Bacillus subtilis; item: Cc1cc(=O)oc2cc(Oc3nc(Nc4ccc(N5C(=O)C(CN6CCN(c7ccccn7)CC6)SC5c5ccccc5Br)cc4)nc(N(C)C)n3)ccc12 (stereo not given)
22

====

# Tested on: Proteus vulgaris
# protocol-description: Antibacterial activity against Proteus vulgaris after 24 hr by agar streak dilution method
# Format: functional
assay-metric: MIC (µg/mL)
Numbers only, in µg/mL.

// solved cases for MIC follow
compound=Cc1cc(=O)oc2cc(Oc3nc(Nc4ccc(/N=C/c5ccc(F)cc5)cc4)nc(N(C)C)n3)ccc12 readout_unit=µg/mL observed_result=50
compound="Cc1cc(=O)oc2cc(Oc3nc(Nc4ccc(N5C(=O)CSC5c5ccccc5)cc4)nc(N(C)C)n3)ccc12 (stereo not given)" readout_unit=µg/mL observed_result=100
compound=Cc1cc(=O)oc2cc(Oc3nc(Nc4ccc(/N=C/c5ccc(Cl)c(Cl)c5)cc4)nc(N(C)C)n3)ccc12 readout_unit=µg/mL observed_result=100
compound="COc1ccc(C2SC(CN3CCN(c4ccccn4)CC3)C(=O)N2c2ccc(Nc3nc(Oc4ccc5c(C)cc(=O)oc5c4)nc(N(C)C)n3)cc2)cc1 (stereo not given)" readout_unit=µg/mL observed_result=50
compound="Cc1cc(=O)oc2cc(Oc3nc(Nc4ccc(N5C(=O)C(CN6CCN(c7ccccn7)CC6)SC5c5cccc(F)c5)cc4)nc(N(C)C)n3)ccc12 (stereo not given)" readout_unit=µg/mL observed_result=50
compound="Cc1cc(=O)oc2cc(Oc3nc(Nc4ccc(N5C(=O)CSC5c5ccc(Cl)cc5)cc4)nc(N(C)C)n3)ccc12 (stereo not given)" readout_unit=µg/mL observed_result=25

Please look at the items below and tell me MIC for each one, in order.
1. Cc1cc(=O)oc2cc(Oc3nc(Nc4ccc(N5C(=O)C(CN6CCN(c7ccccn7)CC6)SC5c5ccc(O)cc5O)cc4)nc(N(C)C)n3)ccc12 (stereo not given)
2. Cc1cc(=O)oc2cc(Oc3nc(Nc4ccc(N5C(=O)C(CN6CCN(c7ccccn7)CC6)SC5c5ccc(O)cc5)cc4)nc(N(C)C)n3)ccc12 (stereo not given)
3. Cc1cc(=O)oc2cc(Oc3nc(Nc4ccc(N5C(=O)C(CN6CCN(c7ccccn7)CC6)SC5c5ccc(Cl)cc5Cl)cc4)nc(N(C)C)n3)ccc12 (stereo not given)
4. Cc1cc(=O)oc2cc(Oc3nc(Nc4ccc(N5C(=O)CSC5c5ccc(Cl)c(Cl)c5)cc4)nc(N(C)C)n3)ccc12 (stereo not given)

25
12.5
12.5
100
